target: aurora 1 kinase (Homo sapiens, UniProt Q96GD4)
Sequence (Q96GD4 whole entry): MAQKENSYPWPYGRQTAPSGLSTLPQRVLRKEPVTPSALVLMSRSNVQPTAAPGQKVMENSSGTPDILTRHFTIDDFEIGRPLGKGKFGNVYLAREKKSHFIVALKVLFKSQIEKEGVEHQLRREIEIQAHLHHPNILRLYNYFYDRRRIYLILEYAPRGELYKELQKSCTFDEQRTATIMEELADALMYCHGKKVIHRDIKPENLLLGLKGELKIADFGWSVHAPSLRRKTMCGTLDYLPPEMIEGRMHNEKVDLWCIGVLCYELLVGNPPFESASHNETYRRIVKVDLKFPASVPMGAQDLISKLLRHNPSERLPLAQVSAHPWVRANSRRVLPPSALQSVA
Counter-ions that a name gives are not always drawn.
property_measured: Ki

Take a look at these entries with their results.
Cc1cc(Nc2cc(C)c(C#N)c(NCCOc3cccnc3)n2)n[nH]1 [Example 12, dihydrochloride] | ≤ 100 nM
Cc1cc(Nc2cc(C)c(C#N)c(NCCOc3ccccc3F)n2)n[nH]1 [Example 13, hydrochloride] | ≤ 100 nM

Fill blank: measured Ki of the compound Cc1cc(Nc2ccc(C#N)c(NCCOc3ccccc3Cl)n2)n[nH]1 [Example 25, hydrochloride] is ____.
≤ 100 nM

----------
test system: human colon cancer cell line HCT-116; assay: Cancer cell growth inhibition (WST-8), HCT-116; type: cell-based; details: HCT-116, 72 h, HCT116, 3 days, read-out: Cell proliferation suppressive activity value IC50
Counter-ions that a name gives are not always drawn.
Here the recorded IC50 is given for each entry.
The answer consists of two parts: a number and, after it, its unit.

Cc1cc(Nc2cc(C)c(C#N)c(NCCOc3cccnc3)n2)n[nH]1 [Example 12, dihydrochloride] | 2 nM
Cc1ccc(OCCNc2nc(Nc3cc(C)[nH]n3)cc(C)c2C#N)c(C)n1 [Example 23, dihydrochloride] | 37 nM

Entry Cc1cc(Nc2cc(C)c(C#N)c(NCCOc3ccccc3)n2)n[nH]1 [Example 2] : reported IC50 = ?
11 nM

----------
Molecular target: Porcine brain tubulin protein (Sus scrofa, UniProt P02550+P02554)
Construct: 3.3 mg/ml Porcine brain tubulin protein: Cytoskeleton; purchased Cytoskeleton; host or cells: porcine brain (tissue-derived)
Sequence (P02550 whole entry): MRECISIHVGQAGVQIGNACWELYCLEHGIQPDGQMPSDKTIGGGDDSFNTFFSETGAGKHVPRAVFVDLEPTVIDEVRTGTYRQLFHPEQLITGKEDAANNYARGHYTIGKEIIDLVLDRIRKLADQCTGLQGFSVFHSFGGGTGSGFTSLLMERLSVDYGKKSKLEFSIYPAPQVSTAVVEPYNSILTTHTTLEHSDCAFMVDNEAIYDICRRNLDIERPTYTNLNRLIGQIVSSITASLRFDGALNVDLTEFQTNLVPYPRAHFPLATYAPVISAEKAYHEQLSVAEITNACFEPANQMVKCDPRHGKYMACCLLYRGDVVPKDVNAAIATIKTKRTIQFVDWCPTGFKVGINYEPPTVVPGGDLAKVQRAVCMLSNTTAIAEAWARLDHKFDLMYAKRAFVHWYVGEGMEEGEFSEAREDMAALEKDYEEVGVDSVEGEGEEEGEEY
Sequence (P02554 whole entry): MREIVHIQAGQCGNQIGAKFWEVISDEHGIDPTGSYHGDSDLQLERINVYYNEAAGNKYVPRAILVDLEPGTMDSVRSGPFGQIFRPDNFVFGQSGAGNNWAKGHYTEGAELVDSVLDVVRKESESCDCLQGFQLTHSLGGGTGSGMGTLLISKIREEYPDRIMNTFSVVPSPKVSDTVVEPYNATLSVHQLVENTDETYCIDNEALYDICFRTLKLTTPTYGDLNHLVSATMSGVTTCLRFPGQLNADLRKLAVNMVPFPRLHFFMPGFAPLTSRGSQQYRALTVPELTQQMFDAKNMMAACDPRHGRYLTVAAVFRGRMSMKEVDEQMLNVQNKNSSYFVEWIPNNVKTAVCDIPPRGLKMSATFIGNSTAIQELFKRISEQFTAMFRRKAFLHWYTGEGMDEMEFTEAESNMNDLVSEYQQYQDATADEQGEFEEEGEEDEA
Assay: Tubulin polymerization assay (turbidity at 405 nm)
Format: biochemical
Conditions: 10 μM compound, maximum polymerization rate, 37° C.; read-out: inhibitory rate (%)
Procedure: A tubulin polymerization reaction mixture (50 μL) (80 mM Pipes pH=6.9, 0.5 mM MgCl2, 1 mM EGTA, 1 mM GTP, 3.3 mg/ml Porcine brain tubulin protein: Cytoskeleton, 10 μM compound) was prepared in a 96 well flat bottom plate under ice-cooling. This was placed in a plate reader (IWAKI microplate reader, EZS-ABS) controlled to a temperature of 37° C., whereby a temperature dependent tubulin polymerization reaction was initiated. […]
Structures can show the parent of a compound that is named as a salt.
Measured inhibition at 10 µM accompanies every entry in the list below.
Only the number, expressed in %, is required.

Some solved cases for reference:
Cc1ccc(OCCNc2nc(Nc3cc(C)[nH]n3)ccc2C#N)c(C)n1 [Example 29, dihydrochloride] | 42
Cc1cc(Nc2cc(C)c(C#N)c(NCCOc3ccncc3)n2)n[nH]1 [Example 11] | 42
Cc1cc(Nc2cc(C)c(C#N)c(NCCOc3ccc(F)c(Cl)c3)n2)n[nH]1 [Example 16] | 65
Cc1cc(Nc2cc(-c3ccccc3)c(C#N)c(NCCOc3ccccc3)n2)n[nH]1 [Example 1] | 51

Given Cc1cc(Nc2cc(C)c(C#N)c(NCCOc3cc(F)cc(F)c3)n2)n[nH]1 [Example 20, hydrochloride] , state its recorded inhibition at 10 µM.
75

Query: inhibition at 10 µM; subject: Cc1cc(Nc2ccc(C#N)c(NCCOc3ccccc3)n2)n[nH]1 [Example 14]
55

Query (compound): Cc1cc(Nc2cc(C(F)(F)F)c(C#N)c(NCCOc3ccccc3)n2)n[nH]1 [Example 3] ; field requested: inhibition at 10 µM
36

What value of measured inhibition at 10 µM is listed for Cc1cc(Nc2cc(C)c(C#N)c(NCCOc3cccnc3)n2)n[nH]1 [Example 12, dihydrochloride] ?
44

What does the record list as inhibition at 10 µM for Cc1cc(Nc2cc(C)c(C#N)c(NCCOc3ccccn3)n2)n[nH]1 [Example 7, dihydrochloride] ?
63
